Study Target: T1, Recombinant WNV-E protein ectodomain (West Nile virus, UniProt Q9Q6P4 291-700)
T1 construct: extracellular domain; also called rWNV-E; WNE
T1 sequence (looked up): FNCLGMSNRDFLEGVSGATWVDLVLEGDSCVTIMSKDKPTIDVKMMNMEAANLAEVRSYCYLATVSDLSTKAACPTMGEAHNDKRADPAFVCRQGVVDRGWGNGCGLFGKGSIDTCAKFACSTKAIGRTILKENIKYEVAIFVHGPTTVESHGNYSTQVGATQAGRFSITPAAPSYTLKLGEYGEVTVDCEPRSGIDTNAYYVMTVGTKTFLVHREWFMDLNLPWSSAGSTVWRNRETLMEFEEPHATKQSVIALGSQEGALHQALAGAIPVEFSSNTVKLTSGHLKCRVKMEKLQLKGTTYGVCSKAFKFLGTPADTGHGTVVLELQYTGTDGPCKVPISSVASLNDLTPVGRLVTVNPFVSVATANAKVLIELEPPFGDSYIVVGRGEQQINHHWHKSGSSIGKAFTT
Procedure Details: SPR (Biacore 3000); scFv on NTA chip via His tag, rWNV-E in solution
Quantity Measured: koff (s⁻¹)
Give your result in s⁻¹ as a bare value.

[[record]]
binder = "scFv 10 (scFv, not shown: small tags and cut ends, also called 10 scFv; antibody 10) scFv: MAQVQLVQSGAEVKKPGSSVKVSCKASGYTFSGYSTHWLRQVPGQGLEWIGWDNPSSGDTTYAENFRGRVTLTRDTSITTDYLEVRGLRSDDTAVYYCARGGDDYSFDHWGQGTLVTVSSSGGGSGGGGSGGGGSQTVVTQEPSFSVSPGGTITLTCGLSSGSVFTSYYPSWYQQTPGQAPRTLIYSTNTRSSGVPDRFSGSILGNKAALTITGAQADDESDYYCVLYMGSGIGVFGTGTKVTVLGQPKAAPSAAAEQKLISEEDL"
quantity_measured = "koff"
observed_result = 0.0212

[[record]]
binder = "scFv 15 (scFv, also called 15 scFv; antibody 15) scFv: MAQVQLVQSGAEVKKPGASVKVSCKASGYTFSGYSTHWLRQVPGQGLEWIGWDNPSSGDTTYAENFRGRVTLTRDTSITTDYLEVRGLRSDDTAVYYCARGGDDYSFDHWGQGTLVTVSSGGGGSGGGGSGGGGSQSALTQPASVSGSPGQSITISCTGTNSDVGIYNLVSWYQQHPGKAPKLMIYDVSNRPSGVSSRFSGSNSGNTATLTISGLQAEDEADYYCSAHAGDNTQFGGGTKLTVLSQPKAAPSAAAEQKLISEEDL"
quantity_measured = "koff"
observed_result = 0.00128

[[record]]
binder = "scFv 73 (scFv, also called 73 scFv; antibody 73) scFv: MAQVQLVQSGAEVKKPGASVKVSCKASGYTFSGYSTHWLRQVPGQGLEWIGWDNPSSGDTTYAENFRGRVTLTRDTSITTDYLEVRGLRSDDTAVYYCARGGDDYSFDHWGQGTLVTVSSGGGGSGGGGSGGGGSSYELTQPPSASGTPGQRVTISCSGSSSNIGSNTVNWYQQLPGTAPKLLIYSNNQRPSGVPDRFSGSKSGTSASLAISGLQSEDEADYYCAAWDARLTGPLFGGGTKLSVLRQPKAAPSAAAEQKLISEEDL"
quantity_measured = "koff"
observed_result = 0.00225

[[record]]
binder = "scFv 84 (scFv, also called 84 scFv; antibody 84) scFv: MAQVQLVQSGAEVKKPGASVKVSCKASGYTFSGYSTHWLRQVPGQGLEWIGWDNPSSGDTTYAENFRGRVTLTRDTSITTDYLEVRGLRSDDTAVYYCARGGDDYSFDHWGQGTLVTVSSGGGGSGGGGSGGGGSQSVLTQPPSVSVAPGKTARIPCGGNNSGTKSVHWYQQKPGQAPVLVIYDDRVRPSGIPERFSGSNSGDTATLTISRVAAGDEADYYCQVSDGSGDPPTWVFGGGTRLTVLGQPKAAPSAAAEQKLISEEDL"
quantity_measured = "koff"
observed_result = 0.00685

[[record]]
binder = "scFv 71 (scFv, also called 71 scFv; antibody 71) scFv: MAQVQLVQSGAEVKKPGASVKVSCKASGYTFSGYSTHWLRQVPGQGLEWIGWDNPSSGDTTYAENFRGRVTLTRDTSITTDYLEVRGLRSDDTAVYYCARGGDDYSFDHWGQGTLVTVSSGGGGSGGGGSGGGGSSYELTQPPSASGTTGQRVTISCSGSSSNIGSNTVNWYQQLPGTAPKLLIYSNNQRPSGVPDRLSGSKSGTSASLAISGLQSEDEADYYCAAWDARLTGPLFGGGTKLSVLRQPKAAPSAAAEQKLISEEDL"
quantity_measured = "koff"
observed_result = 0.00258

[[record]]
binder = "scFv 11 (scFv, also called 11 scFv; antibody 11) scFv: MAQVQLVQSGAEVKKPGASVKVSCKASGYTFSGYSTHWLRQVPGQGLEWIGWDNPSSGDTTYAENFRGRVTLTRDTSITTDYLEVRGLRSDDTAVYYCARGGDDYSFDHWGQGTLVTVSSGGGGSGGGGSGGGGSSSELTQDPAVSVALGQTVRITCRGDSLRSYYASWYQQKPGQAPVLVIYGENNRPSGIPDRFSGSSSGDTASLTITGAQAEDEADYYCNSRDSSDHLLLFGGGTKLTVLGQPKATPSAAAEQKLISEEDL"
quantity_measured = "koff"
observed_result = 0.00161

[[record]]
binder = "scFv 79 (scFv, also called 79 scFv; antibody 79) scFv: MAQVQLVQSGAEVKKPGSSVKVSCKASGGTFSSYAISWVRQAPGQGLEWMGWMNSNTGDTGYAQKFQGRVTMTRNTSTSTAYMELSSLRSEDTAVYYCAKISNYHYYAMDVWGQGTLVTVSSGGGGSGGGGSGGGGSLPVLTQPPSASGTSGQTVTISCSGGSSNIGSHLVTWYQQFPGTAPKVLIHTNDQRPSGVPDRISGSKSGTSASLAISGLQSDDEGDYYCAAWDDSLNGYVFGTGTKVTVLGQPKATPSAAAEQKLISEEDL"
quantity_measured = "koff"
observed_result = 0.00067


Here is another binder to look at.
Req: What value of koff has been recorded for this entry: scFv 85 (scFv, not shown: small tags and cut ends, also called 85 scFv; antibody 85) scFv: MAQVQLVQSGAEVKKPGASVKVSCKASGYTFSGYSTHWLRQVPGQGLEWIGWDNPSSGDTTYAENFRGRVTLTRDTSITTDYLEVRGLRSDDTAVYYCARGGDDYSFDHWGQGTLVTVSSGGGGSGGGGSGGGGSSSELTQDPAVSVALGQTVTITCQGGGLRNYYASWYQQKPGQAPVLLVYGRDNRPSGIPDRFSGSSSGNTASLTITGAQAEDEADYYCNSRDSSGNHLVFGGGTKLTVLGQPKATPSAAAEQKLISEEDL
Resp: 0.00673

Source listed as patent US20090130123A1.
